B1: Gamma-crystallin C, residues 4 to 79; numbered along this chain, P07315 (parent)
chain: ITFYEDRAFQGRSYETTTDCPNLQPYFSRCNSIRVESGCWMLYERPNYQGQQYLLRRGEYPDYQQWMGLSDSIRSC

# Variants of: B1
# protocol-summary: abundance fitness (aPCA) (normalised: wild type 0, dead -1); higher = more abundant; growth selection in yeast, the domain comes from the species named
# applied-conditions: Homo sapiens
Class membership depends on abundance fitness alone; the intervals are low class = under -0.1, middle class = from -0.1 up to -0.003, high class = -0.003 and over

Inquiry: For ITFYEDRAFQGRSYETTTDCPNLQPYFSRCNSIRVESGCWMRYERPNYQGQQYLLRRGEYPDYQQWMGLSDSIRSC , which abundance fitness bin applies?
Reply text: low class

Inquiry: For ITFYEHRAFQGRSYETTTDCPNLQPYFSRCNSIRVESGCWMLYERPNYQGQQYLLRRGEYPDYQQWMGLSDSIRSC , which abundance fitness bin applies?
Reply text: high class

Inquiry: For ITFYEDRAFQGRSYETTTDCPNLQPYFSRCNSIRVEEGCWMLYERPNYQGQQYLLRRGEYPDYQQWMGLSDSIRSC , which abundance fitness bin applies?
Reply text: low class

Inquiry: For ITFYEDRAFQGRSYETTTDCPNLQPYFSRCNSIRVESGCWMLYERPNYQGQQYLLRRYEYPDYQQWMGLSDSIRSC , which abundance fitness bin applies?
Reply text: high class

Inquiry: For ITFYEDRAFQGRSYETTTDCPNLQPYFSRCNSIRVSSGCWMLYERPNYQGQQYLLRRGEYPDYQQWMGLSDSIRSC , which abundance fitness bin applies?
Reply text: middle class

Inquiry: For ITFYEDRAFQGRSYETTTDCPNLQPYFSRCNSIRVESGCWMLYERPAYQGQQYLLRRGEYPDYQQWMGLSDSIRSC , which abundance fitness bin applies?
Reply text: high class

New cases:
Inquiry: For ITFYEDRAFQGRSYETTTDCPNLQPYFSRCNSIRVESGCWMLYERPNYQGQQYLLRRGEYPDYQQWMGLSDSIRSP , which abundance fitness bin applies?
Reply text: low class
